system: COLO 205; test: NCI tumour cell line growth inhibition, 48 h
The source made the active and inactive calls. Rule as the data show it: active = GI50 up to about 1.1 µM and inactive = higher.

Compound	Assayed target	GI50
Cc1ccc(CC[PH](=O)CCc2ccc(C)nc2)cn1	COLO 205	> 100 µM (inactive)
Cc1ccccc1-n1c(C)nc(-c2ccccc2)cc1=O	COLO 205	> 100 µM (inactive)
Cc1ccc2nc3cc(C)c(=O)cc-3sc2c1	COLO 205	94.8 µM (inactive)
C[C@H]1CC[C@H](NC(=O)N(CCCl)N=O)CC1	COLO 205	32.7 µM (inactive)
COC(=O)C1=COC2OC3CC1C2C(C)O3 (stereo not given)	COLO 205	> 100 µM (inactive)

====

system: M19-MEL; experiment: NCI tumour cell line growth inhibition, 48 h
Calls of active or inactive are those of the source. No stated cut-off is given here; in the data, active = GI50 up to about 1.1 µM and inactive = higher.
Possible outcomes: yes (1) (active), no (0) (inactive)

Compound	Assigned label
C1=CC2CCC1CN2CCC1CNc2ccccc21 (stereo not drawn)	no (0)
Cc1cc(Cl)ccc1Nc1nc2c(s1)C(=O)c1ccccc1C2=O	yes (1)
CCOc1ccc(/C=C\c2cc(OC)c(OC)c(OC)c2)cc1	yes (1)
COc1ccc(C2N3CCCCC3[C@@H]3c4[nH]c5ccccc5c4CCN23)c(OC)c1 (stereo partly drawn)	no (0)
COP(=O)(OC)/C(=N\Nc1ccc([N+](=O)[O-])cc1)NCc1ccccc1	no (0)
COc1c(NC(C)=O)cc(C)cc1NC(C)=O	no (0)
O=c1[nH]c(C2CCCCC2)nc2cc(Cl)ccc12	no (0)
Cc1ccccc1C1=C/C(=C(\SS/C(C(=O)c2ccc(OCC(=O)O)c(Cl)c2Cl)=C2\C=C(c3ccccc3C)SS2)C(=O)c2ccc(OCC(=O)O)c(Cl)c2Cl)SS1	no (0)
CCN1CCC(O)(c2ccc(Cl)cc2)C(C(=O)c2ccc(Cl)cc2)C1 (stereo not drawn)	no (0)
CN1C(=O)C(Cl)(C(Cl)(Cl)S(=O)(=O)O)C(=O)c2ccccc21.c1ccncc1 (stereo not drawn)	no (0)
Nc1cc2c3c(cccc3c1)C(=O)N(CCN1CCN(CCN3C(=O)c4cccc5cc(N)cc(c45)C3=O)CC1)C2=O	no (0)
COC(=O)/C=C1/CCC2[C@@H](C(=O)CC3[C@]2(C)CCC[C@@]3(C)C(=O)OC)C1C (stereo partly drawn)	no (0)
CCC12CCCN(Cc3ccccc3)C1c1c(n(C)c3ccccc13)C(C(=O)OC)C2 (stereo not drawn)	no (0)
CC(=O)O[C@H]1C(=O)[C@@]2(C)C(C(OC(=O)c3ccccc3)[C@]3(O)CC(OC(=O)C(O)C(NC(=O)c4ccc(C(F)(F)F)cc4)c4ccccc4)C(C)=C1C3(C)C)[C@]1(OC(C)=O)CO[C@@H]1C[C@@H]2O (stereo partly drawn)	yes (1)
O=S(=O)(NCn1ccc2ccccc21)c1ccccc1	no (0)
CC1(C)CC(=O)C(CC2C(=O)CCCC2=O)C(=O)C1	no (0)
C=CCn1cc(C(=O)NC(=O)NCCCCCOC(=O)CCCCCCCCCCC(=O)OCCCCCNC(=O)NC(=O)c2cn(CC=C)c(=O)n(C)c2=O)c(=O)n(C)c1=O	no (0)
CC1CC(C)C2OC2(C)C[C@H](C)C(=O)NC(C)C(=O)N(C)[C@H](Cc2c(Br)[nH]c3ccccc23)C(=O)N[C@@H](c2ccc(O)cc2)CC(=O)O1 (stereo partly drawn)	yes (1)

====

# key: entry, value: GI50
test system: MDA-MB-231; test: NCI tumour cell line growth inhibition, 48 h
Calls of active or inactive are those of the source. No stated cut-off is given here; in the data, active = GI50 up to about 1.1 µM and inactive = higher.
Outcome measure: GI50

Molecule	Result
NC(CSc1nc2ccccn2c1[N+](=O)[O-])C(=O)O (stereo unspecified)	> 100 µM (inactive)
COc1ccc2c(c1OC)C(C(Cl)(Cl)Cl)N1CCc3cc4c(cc3C1=C2)OCO4 (stereo unspecified)	23.5 µM (inactive)
O=C(N/N=C(COc1ccc(Cl)cc1)\N=C\c1cccnc1)c1ccncc1	> 100 µM (inactive)
O=C1C(Cl)=C(Nc2ccc(OC(F)(F)F)cc2)C(=O)c2c(O)ccc(O)c21	0.443 µM (active)
CC(=O)OCC(Br)C1(C)CCC(C(C)(C)Br)O1 (stereo unspecified)	> 100 µM (inactive)
COc1cc(CN2CCCCC2)cc2cc(C(=O)O)c(=O)oc12	> 100 µM (inactive)
CC1=NN(c2nc(N)nc(C(C)Cl)n2)C(C)(C)C1 (stereo unspecified)	> 100 µM (inactive)
Cc1cc(C)c(S(=O)(=O)N[C@@H](/C=C(\Br)CO)C(C)C)c(C)c1	23.6 µM (inactive)
CC(C(=O)O)C1Nc2ccccc2NC1=O (stereo unspecified)	> 100 µM (inactive)
Cc1cc(S(=O)(=O)Nc2nc(N)n(C)n2)c(S)cc1Cl	> 10 µM (inactive)
Nc1nccc2c1ncn2[C@H]1C[C@H](O)[C@@H](CO)O1	> 100 µM (inactive)
Cc1c(O)c(OC2OC(CO)C(O)C(O)C2O)cc2c1C=C[C@@H]1[C@@]2(C)C(=O)C[C@]2(C)[C@@H]([C@@](C)(O)C(=O)CCC(C)(C)O)[C@H](O)C[C@@]12C (stereo partly specified)	21.1 µM (inactive)
O=Cc1cc2c(cc1-c1c(C=O)ccc3c1OCO3)OCO2	> 10 µM (inactive)
O=C(O)C1C2C=CC(O2)C1C(=O)Nc1ccccc1 (stereo unspecified)	> 100 µM (inactive)
O=[N+]([O-])C(C(Cl)=C(Cl)Cl)=C(N1CCOCC1)N1CCOCC1	> 100 µM (inactive)
CC(C)CCCC(C)[C@H]1CC[C@H]2n3c(nnc3-c3ccccc3)CCC[C@]12C (stereo partly specified)	15 µM (inactive)
CC1(C)Cc2c(cnn2-c2ccc(C(F)(F)F)cc2)-c2[nH]c(-c3ccc(O)cc3)nc21	22.3 µM (inactive)
C[C@@H]1CC[C@H]2C(C)(C)[C@H]3C[C@@]12CC[C@@]3(C)O [CEDROL]	> 100 µM (inactive)
Cc1c(NC(=O)CSC(=S)N2CCN(Cc3ccccc3)CC2)c(=O)n(-c2ccccc2)n1C	> 100 µM (inactive)
Cc1cc(O)c(C(C)C)cc1CN1CCCCC1	> 100 µM (inactive)
Nc1nc(Cl)cc(NCC2(CO)CC(CCc3ccccc3)C2)n1 (stereo unspecified)	> 81.1 µM (inactive)

====

system: MOLT-4; assay: NCI tumour cell line growth inhibition, 48 h
The source made the active and inactive calls. No stated cut-off is given here; in the data, active = GI50 up to about 1.1 µM and inactive = higher.
Outcome measure: GI50

Molecule	Result
CSc1nnc(SCc2nn3c(=O)cc(C)nc3s2)s1	> 100 µM (inactive)
COc1ccnc2c1C(=O)c1nc3ccccc3c3ccnc-2c13	1.42 µM (inactive)
Clc1cccc(C2ON=C(c3ccccc3)N2C23CC4CC(CC(C4)C2)C3)c1Cl (stereo not drawn)	> 10 µM (inactive)
COC1CC(OC2C(C)OC(OC3C(C)OC(OC4C(C)OC(O[C@H]5CC[C@@]6(C)C(=CC[C@]7(O)[C@@H]6C[C@@H](OC(C)=O)[C@@]6(C)[C@]7(O)CC[C@@]6(O)C(C)=O)C5)CC4OC)CC3OC)CC2OC)OC(C)C1O (stereo partly drawn)	> 25 µM (inactive)
COc1c(NC(C)=O)cc(C)cc1NC(C)=O	> 100 µM (inactive)
COc1ccc(-c2c(-c3ccccc3)c(C)nc3nc(SC)nc(SC)c23)cc1OC	5.81 µM (inactive)
COc1ccc(S(=O)(=O)Nc2ccc(-c3csc(N4C(=O)/C(=C/c5ccccc5[N+](=O)[O-])N=C4c4ccccc4)n3)cc2)cc1Cl	29.9 µM (inactive)
COc1ccc(C(CC(=O)c2cccs2)C(=O)c2ccc3c(c2)OCO3)cc1 (stereo not drawn)	> 100 µM (inactive)

====

system: SF-539; assay: NCI tumour cell line growth inhibition, 48 h
Activity calls are given as the source filed them. Cut-off read from the data, not from the text of the source: active = GI50 up to about 1.1 µM and inactive = higher.
Outcome measure: GI50

Compound	Result
CC(=O)Oc1cc(C(F)(F)F)ccc1C(=O)OC1(C)OC(=O)c2ccc(C(F)(F)F)cc2O1 (stereo not given)	> 100 µM (inactive)
C=CCNC(=O)/C=C\C(=O)O	> 100 µM (inactive)
N#CC1=C(N2CCOCC2)CCC1	> 100 µM (inactive)
COC(=O)C1SC(SC)=NC12c1ccccc1Nc1ccccc12 (stereo not given)	17.5 µM (inactive)
COc1ccc(/C=C2/NC(=S)N=C2Cl)cc1	> 100 µM (inactive)
COC(=O)C1(c2cc3ccccc3n2S(=O)(=O)c2ccccc2)CC2C=CC1NC2 (stereo not given)	1.95 µM (inactive)
Cc1ccc(S(=O)(=O)C2=Cc3ccc(C(F)(F)F)cc3C2(O)c2cccc(C(F)(F)F)c2)cc1 (stereo not given)	1.95 µM (inactive)
COc1ccc(/C=C2\C[C@H]3[C@@H]4CCC5=C[C@@H](N6CCCC6)CC[C@]5(C)[C@H]4CC[C@]3(C)[C@H]2O)cc1	2.15 µM (inactive)
CN1CNc2nc(N)n(C)c(=O)c2C1	> 10 µM (inactive)
O=S1(=O)C(c2ccccc2)C(N2CCCCC2)C1C1CC2c3ccccc3C1c1ccccc12 (stereo not given)	> 100 µM (inactive)
